What follows is a collection of IC50 values obtained with CYP 2C9 (Homo sapiens (Human), UniProt P11712).
Sequence (P11712 whole entry): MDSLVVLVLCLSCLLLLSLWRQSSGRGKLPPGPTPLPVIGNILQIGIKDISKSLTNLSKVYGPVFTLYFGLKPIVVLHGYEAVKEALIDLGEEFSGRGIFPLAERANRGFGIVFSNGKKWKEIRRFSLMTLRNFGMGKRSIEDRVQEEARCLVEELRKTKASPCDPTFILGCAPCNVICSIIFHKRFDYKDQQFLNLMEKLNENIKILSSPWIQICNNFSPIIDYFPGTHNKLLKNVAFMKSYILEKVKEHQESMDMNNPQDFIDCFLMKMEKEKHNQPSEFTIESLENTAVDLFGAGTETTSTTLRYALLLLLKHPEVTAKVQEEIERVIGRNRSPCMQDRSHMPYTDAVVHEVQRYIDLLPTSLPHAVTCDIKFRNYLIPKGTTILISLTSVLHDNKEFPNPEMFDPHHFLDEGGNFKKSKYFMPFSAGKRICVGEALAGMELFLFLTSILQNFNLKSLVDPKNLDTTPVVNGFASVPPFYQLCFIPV
measured.attribute: IC50 (µM)

> print(dat)
                                smiles.repr  measured.attribute  numeric.value
1  Cc1c(C(=O)Nc2ccc(F)c(C#N)c2)c(C)n(C)c1C(=O)C(=O)N[C@@H](C)C(F)(F)F                IC50           79.7
2  Cc1c(C(=O)Nc2ccc(F)c(C#N)c2)c(C)n(C)c1C(=O)C(=O)NC1(C(F)(F)F)COC1                IC50           16.6

Every entry's value here was drawn from patent US12116356B2.
